Hi there, I'd appreciate the recorded pIC50 for every entry that follows.
# study-system: human FGFR-1 (Homo sapiens, UniProt P11362)
# Sequence (P11362 22-822 limits assumed): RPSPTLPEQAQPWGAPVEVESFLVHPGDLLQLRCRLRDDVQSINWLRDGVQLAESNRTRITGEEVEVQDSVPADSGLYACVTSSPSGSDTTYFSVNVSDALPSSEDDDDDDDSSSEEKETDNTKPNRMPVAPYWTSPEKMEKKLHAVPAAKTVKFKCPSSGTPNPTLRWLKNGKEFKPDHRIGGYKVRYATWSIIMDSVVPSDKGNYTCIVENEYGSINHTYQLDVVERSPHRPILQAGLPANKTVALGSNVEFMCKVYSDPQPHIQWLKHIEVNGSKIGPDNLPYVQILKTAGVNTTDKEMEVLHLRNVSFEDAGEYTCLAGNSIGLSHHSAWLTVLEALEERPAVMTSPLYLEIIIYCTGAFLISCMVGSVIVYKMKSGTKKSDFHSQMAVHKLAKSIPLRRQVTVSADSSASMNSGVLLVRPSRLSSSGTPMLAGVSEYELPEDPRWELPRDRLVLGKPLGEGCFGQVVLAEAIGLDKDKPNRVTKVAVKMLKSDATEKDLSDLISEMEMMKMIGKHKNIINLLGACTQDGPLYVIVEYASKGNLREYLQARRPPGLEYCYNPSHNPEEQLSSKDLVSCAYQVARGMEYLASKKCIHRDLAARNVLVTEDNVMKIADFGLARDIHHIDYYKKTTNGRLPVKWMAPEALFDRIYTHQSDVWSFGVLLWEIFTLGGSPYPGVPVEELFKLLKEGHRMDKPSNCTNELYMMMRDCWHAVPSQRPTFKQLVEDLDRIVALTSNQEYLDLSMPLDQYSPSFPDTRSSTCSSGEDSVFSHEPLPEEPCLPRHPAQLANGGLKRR
# assay-method-text: FGFR-1 high ATP kinase assay (TR-FRET)
Where a name gives a salt, the structure may show the parent alone.
// pIC50 here means minus log10 of the molar concentration (mol/L)

The recorded pIC50 for COc1cc(C)cc2cc(-c3cc(Cn4ccnc4C#N)n4ncnc(N)c34)sc12 [Example 122] is 7.14

response.value for Nc1nccn2c(C3CCNCC3)nc(-c3cc4ccccc4[nH]3)c12 [WO 2007/061737 Example 25, reference compound] (field: pIC50) = 6.06

Record COc1cc(C)cc2cc(-c3cc(CNC(=O)CN)n4ncnc(N)c34)sc12 [Example 106, dihydrochloride] , field pIC50: 7.60

Entry COc1cc(C)cc2cc(-c3cc(CN4CCNC(C)(C)C4)n4ncnc(N)c34)sc12 [Example 45] , pIC50 reported as 7.74

Record COc1cc(C)cc2cc(-c3cc(C(=O)N4CC[C@](C)(N)C4)n4ncnc(N)c34)sc12 [Example 97, dihydrochloride] . Reported pIC50: 8.33

Value of measured pIC50 for the entry COc1cc(C)cc2cc(-c3cc(CN4CCC(CO)CC4)n4ncnc(N)c34)sc12 [Example 73] : 7.18

Just so you know, measured pIC50 for Cc1c(-c2nc(C3CCN(C(=O)c4ccsc4)CC3)n3ccnc(N)c23)sc2ccccc12 [WO 2007/061737 Example 209, reference compound] came out at 5.55

The molecule listed as COc1cc(C)cc2cc(-c3cc(CN4CC[C@H](N(C)C)C4)n4ncnc(N)c34)sc12 [Example 15] has a reported pIC50 of 7.95

For this molecule ( COc1cc(C)cc2cc(-c3cc(CN4C[C@@H]5CCCN[C@@H]5C4)n4ncnc(N)c34)sc12 [Example 47] ), measured pIC50 is 7.60

The measured pIC50 associated with COc1cc(C)cc2cc(-c3cc(CN4CCNC(C(N)=O)C4)n4ncnc(N)c34)sc12 (racemic) [Example 7, trihydrochloride] reads 8.11

# pIC50 (molecule: COc1cc(C)cc2cc(-c3cc(CN4CCN(C(=O)CO)CC4)n4ncnc(N)c34)sc12 [Example 96] ) is 7.90

Reported pIC50 for CNC1CCN(Cc2cc(-c3cc4cc(C)cc(OC)c4s3)c3c(N)ncnn23)C1 (stereo not drawn) [Example 41] was 8.14

Form field pIC50, entry COc1cc(C)cc2cc(-c3cc(CN4CCNC(C(=O)O)C4)n4ncnc(N)c34)sc12 (stereo not drawn) [Example 38] : 7.34

So for COc1cc(C)cc2cc(-c3cc(CN4CC(N5CCCC5)C4)n4ncnc(N)c34)sc12 [Example 71] , the logged pIC50 turned out to be 7.20

pIC50 reported for this molecule COc1cc(C)cc2cc(-c3cc(CN[C@@H](C)C(N)=O)n4ncnc(N)c34)sc12 [Example 85] : 7.34
